Every entry's value here was drawn from patent US20230099344A1.

test system: IL6; test: R848 stimulated IL6 inhibition assay in PBMC; type: cell-based; conditions: PBMC; human PBMCs, R848 stimulation, compound overnight, IL6 by MSD after 24 hrs; read-out: R848 stim IL6 inhibition IC50
attributeMeasured: IC50

Illustrative cases are given below, each with its answer.
# input For the molecule CC(C)Oc1cc2c(cc1NC(=O)c1cnn3cccnc13)CN(C1CCN(CC3CCN(c4ccc5c(c4)C(=O)N([C@@H]4CCC(=O)NC4=O)C5=O)CC3)CC1)C2=O [Example 47] , give its reported IC50.
# output 0.01 to 0.05 µM

# input For the molecule C=Nc1c(C(=O)Nc2cc3cn(C4CCN(CC5(F)CN(c6cccc7c6n(C)c(=O)n7C6CCC(=O)NC6=O)C5)CC4)nc3cc2C2CC2)cnn1/C=C\C (centres unmarked) [Example 389] , give its reported IC50.
# output 0.01 to 0.05 µM

# input For the molecule CC(C)Oc1cc2c(cc1NC(=O)c1cnn3cccnc13)CN(C1CCN(CC3CCN(c4ccc5c(c4)C(=O)N([C@H]4CCC(=O)NC4=O)C5=O)CC3)CC1)C2=O [Example 48] , give its reported IC50.
# output 0.01 to 0.05 µM

Next:
# input For the molecule O=C1CCC(N2C(=O)c3ccc(N4CCN(C[C@H]5CC[C@H](n6cc7cc(NC(=O)c8cnn9cccnc89)c(OCC(F)F)cc7n6)CC5)CC4)cc3C2=O)C(=O)N1 (some centres unmarked) [Example 430] , give its reported IC50.
# output 0.01 to 0.05 µM

# input For the molecule O=C1CCC(N2C(=O)c3ccc(N4CCC5(CC4)CC(CN4CCC(n6cc7cc(NC(=O)c8cnn9cccnc89)c(OCC8CC8)cc7n6)CC4)C5)cc3C2=O)C(=O)N1 (centres unmarked) [Example 261] , give its reported IC50.
# output 0.05 to 0.1 µM

# input For the molecule CC(C)Oc1cc2c(cc1NC(=O)c1cnn3cccnc13)CN([C@H]1CC[C@H](CN3CCN(c4ccc5c(c4)C(=O)N(C4CCC(=O)NC4=O)C5=O)CC3)CC1)C2=O (some centres unmarked) [Example 431] , give its reported IC50.
# output 0.01 to 0.05 µM
